// provenance: ChEMBL document CHEMBL4725351

MIC for assorted compounds
# Test system: Staphylococcus aureus
# protocol.text: Antibacterial activity against methicillin-resistant Staphylococcus aureus USA300 LAC measured after overnight incubation by microtitre plate based spectrophotometric method
# Format: functional
Where a SMILES comes first, the peptide text is derived from it.
Express the result in µM but write the number alone.

compound: CN[C@H](CC(C)C)C(=O)N[C@H]1C(=O)N[C@@H](CC(N)=O)C(=O)N[C@H]2C(=O)N[C@H]3C(=O)N[C@H](C(=O)N[C@H](C(=O)O)c4cc(O)cc(O)c4-c4cc3ccc4O)[C@H](O)c3ccc(c(Cl)c3)Oc3cc2cc(c3O[C@@H]2O[C@H](CO)[C@@H](O)[C@H](O)[C@H]2O[C@H]2C[C@](C)(N)[C@H](O)[C@H](C)O2)Oc2ccc(cc2Cl)[C@H]1O [VANCOMYCIN]
MIC, µM: 0.4

Report MIC for CC[C@H](C)[C@@H]1NC(=O)[C@H](CCCNC(=N)N)NC(=O)[C@H](C(C)C)NC(=O)[C@H](C)NC(=O)[C@H](C(C)C)NC(=O)[C@H]([C@@H](C)CC)NC(=O)[C@H](CC(C)C)NC(=O)[C@H](CCCNC(=N)N)NC(=O)[C@H](C(C)C)NC(=O)[C@H](CCCNC(=N)N)NC(=O)[C@H](CCCNC(=N)N)NC(=O)[C@H](Cc2c[nH]c3ccccc23)NC1=O (cyclo(AVRIWRRVRLIV))
65.8

---

MIC for assorted compounds
# Test system: Staphylococcus aureus
# protocol.text: Antibacterial activity against methicillin-resistant Staphylococcus aureus USA300 LAC measured after overnight incubation by microtitre plate based spectrophotometric method
# Type: functional
Where a SMILES comes first, the peptide text is derived from it. Bridges are numbered along the chain shown (N, C = ends).
Express the result in µM but write the number alone.

Consider the following illustrative entries.
compound: CC[C@H](C)[C@@H]1NC(=O)[C@H](CCCNC(=N)N)NC(=O)[C@H](C(C)C)NC(=O)[C@H](C)NC(=O)[C@H](C(C)C)NC(=O)[C@H]([C@@H](C)CC)NC(=O)[C@H](CC(C)C)NC(=O)[C@H](CCCNC(=N)N)NC(=O)[C@H](C(C)C)NC(=O)CC[C@@H](C(N)=O)NC(=O)[C@H](CCCNC(=N)N)NC(=O)[C@H](CCCNC(=N)N)NC(=O)[C@H](Cc2c[nH]c3ccccc23)NC1=O (VRLIVAVRIWRRE-NH2; lactam N-13)
measurement.unit: µM
MIC: 15.1
//
compound: CCCCCCCCCCCCCCCC[N+](C)(C)Cc1ccccc1.[Cl-] [CETALKONIUM CHLORIDE]
measurement.unit: µM
MIC: 3.7

Proceeding to the next compound to report its MIC.
Report MIC for CC[C@H](C)[C@@H]1NC(=O)[C@H](CCCNC(=N)N)NC(=O)[C@H](C(C)C)NC(=O)[C@H](C)NC(=O)[C@H](C(C)C)NC(=O)[C@H]([C@@H](C)CC)NC(=O)[C@H](CC(C)C)NC(=O)[C@H](CCCNC(=N)N)NC(=O)[C@H](C(C)C)NC(=O)[C@@H](N)CSSC[C@@H](C(N)=O)NC(=O)[C@H](CCCNC(=N)N)NC(=O)[C@H](CCCNC(=N)N)NC(=O)[C@H](Cc2c[nH]c3ccccc23)NC1=O (H-CVRLIVAVRIWRRC-NH2; disulfide 1-14)
28.7
